# Test system: S. cerevisiae Mot1-301 ts growth rescue, BacTiter-Glo ATP luminescence
# experiment.description: restored Mot1-301 yeast growth at 38.5C – whole organism, S. cerevisiae, Mot1-301 ts mutant, luminescence, dose retest, SUMOylation pathway inhibitor project, confirmation (AID 463204);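 note: growth at restrictive 38.5 degrees C of Mot1-301 OY566 strain; actives raise luminescence by restoring growth of the ts mutant at high temperature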
Activity calls are given as the source filed them.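 Rule for the calls: active = AC50 no more than ten times the top concentration tested, that is within one log above it; inconclusive = flat curve fit with activity between 30% and 70%, or invalid poor fit; inactive = AC50 beyond ten times the top tested dose.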
Field: AC50. Provide a value for each of the molecules that follow.

Lookup: // query AC50 value for entry COC(=O)c1sc(NC(=O)c2ccc(Cn3cc(Cl)cn3)o2)c(C#N)c1C
Found: > 42 µM (inactive)

Lookup: # iterate: Cc1ccc(N/N=C2/CCCNC2=O)cc1
Found: > 42 µM (inactive)

Lookup: # iterate: CCOc1ccc(/C=N/NS(=O)(=O)c2ccc(C)cc2)cc1OC
Found: > 42 µM (inactive)

Lookup: # iterate: O=C(/C(=N\Nc1ccc(Br)cc1)Sc1nnnn1-c1ccccc1)c1ccccc1
Found: > 42 µM (inactive)

Lookup: # iterate: CSc1cccc(NC(=S)N2CCCN(Cc3ccccc3F)C2)c1
Found: > 42 µM (inactive)

Lookup: # iterate: Cc1cc(C)cc(-n2ncc3c2CCCC3NC(=O)c2cc(C)[nH]n2)c1 (centres undefined)
Found: > 42 µM (inactive)

Lookup: # iterate: COC(=O)[C@@]12CCCCN1[C@H](c1ccc(-c3ccc(C(C)=O)cc3)cc1)[C@@H]1C(=O)N(C)C(=O)[C@@H]12
Found: > 42 µM (inactive)

Lookup: # iterate: O=C(NCc1ccccc1)c1cccc(COc2ccc(Cl)cc2)c1
Found: > 42 µM (inactive)

Lookup: # iterate: COc1ccc(-c2[nH]nc3c2C(c2ccncc2)C(C#N)=C(N)O3)cc1 (centres undefined)
Found: > 42 µM (inactive)

Lookup: # iterate: O=C(c1cccs1)N(C(=O)c1cccs1)c1ccc(Br)cn1
Found: 1.35 µM

Lookup: # iterate: C/C=C/C(=O)N1c2ccc(C)cc2C(C)=CC1(C)C
Found: > 42 µM (inactive)

Lookup: # iterate: CCOc1ccc(NS(=O)(=O)c2ccc(C(=O)NCc3cccnc3)cc2)cc1
Found: > 42 µM (inactive)

Lookup: # iterate: O=S(=O)(Cc1ccccc1)NCc1ccccn1
Found: > 42 µM (inactive)

Lookup: # iterate: Cc1sc(-n2c(C)cc(C=C3C(=O)NC(=O)NC3=O)c2C)c(C#N)c1C
Found: > 42 µM (inactive)
